Assay Details: Clearance in dog
Format: ADME, organism-based, Canis lupus familiaris
Test Settings: in vivo
Property Name: clearance (mL/min/kg)
Provide only the numeric value, understood in mL/min/kg.

Ask: Would you mind telling me what clearance value was observed for O=C(Nc1ccccc1Br)N[C@@H]1CCN(c2ccc(C(F)(F)F)cn2)C1 [SB-705498] ?
Reply: 11

====

Assay Details: Half life in rat
Type: ADME, organism-based
Test Settings: in vivo
Property Name: half-life (h)
Write down the numeric answer in h and omit the unit.

Ask: Dear colleague, I am looking for the recorded half-life of the following molecule: O=C(Nc1ccccc1Br)N[C@@H]1CCN(c2ccc(C(F)(F)F)cn2)C1 [SB-705498]
Reply: 3.1
